# EXPERIMENTAL DETAILS: NCI Yeast Anticancer Drug Screen. Data for the mlh1 rad18 strain (AID 175)
# MEASUREMENT CONDITIONS: S. cerevisiae mlh1 rad18 strain growth inhibition; at 50.0 µM (retest, dose inferred, filed as 5.0); hits give high values
This is part of a sample that, as a whole, favours compounds with a hit. Of some 79,000 tested, about 15% had one in any assay.
growth inhibition values by entry
Report the value in % with no unit label.

Illustrative cases are given below, each with its answer.
COMPOUND: Cc1ccc(C(=O)C(CN(C)C)CN(C)C)cc1
VALUE UNITS: %
growth inhibition: 72
--
COMPOUND: COc1ccc2c(c1)sc(/C=C/c1ccc(O)c3ncccc13)[n+]2C
VALUE UNITS: %
growth inhibition: 92
--
COMPOUND: COc1ccc(CSC2=C(C#N)C(=O)NC3(CCCCC3)S2)cc1
VALUE UNITS: %
growth inhibition: -2

Q: Bench note: what growth inhibition did `CC(=O)CC(C)=O.CCN(CC)CC[C-]=O.[Pd+2]` show?
Result: 54

Q: Bench note: what growth inhibition did Nc1ncnc2nn(C3OC(CO)C(O)C3O)nc12 (stereo unspecified) show?
Result: 0

Q: Bench note: what growth inhibition did `C(=C/c1ccnc2ccccc12)/c1cccs1` show?
Result: 94

Q: Bench note: what growth inhibition did `O=[N+]([O-])/C(C=Nc1ccccc1)=C/Nc1ccccc1` show?
Result: 83

---

# EXPERIMENTAL DETAILS: NCI Yeast Anticancer Drug Screen. Data for the cln2 rad14 strain (AID 165);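 also: 0% = growth equal to vehicle treated cultures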
# MEASUREMENT CONDITIONS: S. cerevisiae cln2 rad14 strain, at 5.0 µM (retest, dose inferred, filed as 0.5)
This is part of a sample that, as a whole, favours compounds with a hit. Of some 79,000 tested, about 15% had one in any assay. The source made the active and inactive calls. Cut-off read from the data, not from the text of the source: active = growth inhibition above about 70%; inactive = the rest.
Your response should consist of one outcome taken from yes (1) (active), no (0) (inactive)

COMPOUND: O=S(=O)(c1cc(Cl)c(Cl)cc1Cl)N(CCCCCN(S(=O)(=O)c1cc(Cl)c(Cl)cc1Cl)S(=O)(=O)c1cc(Cl)c(Cl)cc1Cl)S(=O)(=O)c1cc(Cl)c(Cl)cc1Cl
GROUP LABEL: no (0)

Q: Look up the recorded call for CC(=O)OCC1CC2OC2CC1C (configuration not stated) in this test.
Result: no (0)

---

# EXPERIMENTAL DETAILS: NCI Yeast Anticancer Drug Screen. Data for the rad50 strain (AID 155);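 also: 0% = growth of vehicle-only cultures of the same strain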
# MEASUREMENT CONDITIONS: S. cerevisiae rad50 strain growth inhibition; at 50.0 µM
# Procedure: Growth inhibition of yeast strains with defined genetic alterations is measured as a screen for potential anti-cancer activity. Selected strains with alterations in DNA damage repair or cell cycle control were exposed to compounds and growth inhibition was measured relative to vehicle treated controls. The strain used in this assay is rad50
This is part of a sample that, as a whole, favours compounds with a hit. Of some 79,000 tested, about 15% had one in any assay. Active and inactive are the calls of the source. Rule as the data show it: active = growth inhibition above about 70%; inactive = the rest.
Your response should consist of one outcome taken from label 1 (active), label 0 (inactive)

COMPOUND: CCC1C(c2cccc(OC)c2O)c2cc3c(cc2OC1N1CCCC1)OCO3 (stereo not given)
GROUP LABEL: label 0
--
COMPOUND: NC(=O)C1CCCN1C(=O)C1CCCN(Cc2cc(CN3CCCC(C(=O)N4CCCC4C(N)=O)C3)cc(CN3CCCC(C(=O)N4CCCC4C(N)=O)C3)c2)C1 (stereo not given)
GROUP LABEL: label 1
--
COMPOUND: O=C(O)c1ccc(CSc2ccc(Cl)cc2)cc1
GROUP LABEL: label 0
--
COMPOUND: Cc1ccc2c(c1)C1C(CC2)C2C(=O)OC(=O)C2C2CCc3ccc(C)cc3C21 (stereo not given)
GROUP LABEL: label 0

Read the next record carefully.
Q: Look up the recorded call for `CCC/C(C)=N/NC(=S)SC` in this test.
Result: label 1

Measured values drawn from PubChem BioAssay (NCI) for this set.
